Values were extracted from paper PMC4113420.

Molecular target: Msh2-Msh6 (S. cerevisiae, UniProt P25847 1-964; Q03834 1-1242)
Sequence (P25847 whole entry, chain 1 of 2): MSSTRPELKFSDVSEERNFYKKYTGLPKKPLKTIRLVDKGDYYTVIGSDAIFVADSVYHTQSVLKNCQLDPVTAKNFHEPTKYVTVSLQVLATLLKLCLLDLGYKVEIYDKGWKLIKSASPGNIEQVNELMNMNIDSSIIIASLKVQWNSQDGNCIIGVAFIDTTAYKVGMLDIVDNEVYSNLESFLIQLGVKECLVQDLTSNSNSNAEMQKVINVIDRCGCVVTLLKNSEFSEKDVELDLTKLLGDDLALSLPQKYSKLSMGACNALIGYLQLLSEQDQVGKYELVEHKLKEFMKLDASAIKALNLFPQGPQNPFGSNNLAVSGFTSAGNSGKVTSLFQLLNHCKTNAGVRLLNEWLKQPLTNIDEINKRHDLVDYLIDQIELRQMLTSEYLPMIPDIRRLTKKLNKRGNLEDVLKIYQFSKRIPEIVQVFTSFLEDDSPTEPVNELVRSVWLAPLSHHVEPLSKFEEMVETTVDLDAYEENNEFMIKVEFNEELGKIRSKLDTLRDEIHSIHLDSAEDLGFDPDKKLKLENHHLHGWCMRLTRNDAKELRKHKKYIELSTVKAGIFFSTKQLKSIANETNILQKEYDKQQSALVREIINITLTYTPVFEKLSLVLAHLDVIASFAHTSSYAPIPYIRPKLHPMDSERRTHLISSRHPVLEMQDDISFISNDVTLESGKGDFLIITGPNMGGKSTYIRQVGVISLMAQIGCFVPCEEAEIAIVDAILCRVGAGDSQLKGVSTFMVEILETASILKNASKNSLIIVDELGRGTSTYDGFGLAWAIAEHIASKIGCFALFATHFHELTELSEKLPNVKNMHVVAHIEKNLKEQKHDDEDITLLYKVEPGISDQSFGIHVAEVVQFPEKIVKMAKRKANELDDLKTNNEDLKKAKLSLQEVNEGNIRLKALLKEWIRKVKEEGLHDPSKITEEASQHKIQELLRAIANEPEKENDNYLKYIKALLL
Sequence (Q03834 whole entry, chain 2 of 2): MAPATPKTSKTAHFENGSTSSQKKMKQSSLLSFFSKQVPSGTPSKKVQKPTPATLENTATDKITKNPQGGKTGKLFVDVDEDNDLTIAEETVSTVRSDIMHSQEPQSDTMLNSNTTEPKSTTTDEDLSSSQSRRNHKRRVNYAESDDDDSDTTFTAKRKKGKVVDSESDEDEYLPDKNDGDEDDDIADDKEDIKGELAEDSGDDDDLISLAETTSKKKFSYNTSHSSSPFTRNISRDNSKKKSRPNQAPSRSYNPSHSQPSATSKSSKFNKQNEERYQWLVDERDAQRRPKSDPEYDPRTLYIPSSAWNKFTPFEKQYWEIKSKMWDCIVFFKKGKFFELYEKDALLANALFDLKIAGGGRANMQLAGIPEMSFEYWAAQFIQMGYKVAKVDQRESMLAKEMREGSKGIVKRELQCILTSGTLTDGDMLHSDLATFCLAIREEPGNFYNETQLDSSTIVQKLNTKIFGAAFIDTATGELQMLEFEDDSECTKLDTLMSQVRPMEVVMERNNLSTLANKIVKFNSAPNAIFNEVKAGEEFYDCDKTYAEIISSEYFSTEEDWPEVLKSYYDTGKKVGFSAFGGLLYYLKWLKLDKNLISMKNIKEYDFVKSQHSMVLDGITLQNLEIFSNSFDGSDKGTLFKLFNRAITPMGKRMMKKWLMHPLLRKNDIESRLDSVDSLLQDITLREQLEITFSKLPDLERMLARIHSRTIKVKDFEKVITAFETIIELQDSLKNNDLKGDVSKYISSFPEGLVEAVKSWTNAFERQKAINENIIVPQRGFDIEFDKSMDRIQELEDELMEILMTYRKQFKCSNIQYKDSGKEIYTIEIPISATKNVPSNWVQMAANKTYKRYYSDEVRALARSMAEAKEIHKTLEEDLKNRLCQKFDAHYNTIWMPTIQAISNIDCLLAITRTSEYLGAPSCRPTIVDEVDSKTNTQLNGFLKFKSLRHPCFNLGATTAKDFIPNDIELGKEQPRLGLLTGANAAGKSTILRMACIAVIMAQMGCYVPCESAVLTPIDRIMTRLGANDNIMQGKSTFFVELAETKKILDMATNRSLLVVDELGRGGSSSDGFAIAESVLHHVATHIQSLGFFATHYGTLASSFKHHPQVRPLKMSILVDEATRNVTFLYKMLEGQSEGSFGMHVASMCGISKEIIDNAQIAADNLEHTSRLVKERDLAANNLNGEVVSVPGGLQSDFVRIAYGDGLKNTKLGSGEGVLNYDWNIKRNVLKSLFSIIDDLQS
Test: SPR
measured-endpoint: binding result

1. PCNA-E143K (natural protein, S. cerevisiae, biotinylated when bound to the SPR chip (site not stated)) MLEAKFEEASLFKRIIDGFKDCVQLVNFQCKEDGIIAQAVDDSRVLLVSLEIGVEAFQEYRCDHPVTLGMDLTSLSKILRCGNNTDTLTLIADNTPDSIILLFEDTKKDRIAEYSLKLMDIDADFLKIEELQYDSTLSLPSSKFSKIVRDLSQLSDSINIMITKETIKFVADGDIGSGSVIIKPFVDMEHPETSIKLEMDQPVDLTFGAKYLLDIIKGSSLSDRVGIRLSSEAPALFQFDLKSGFLQFFLAPKFNDEE: binds
2. PCNA-C81R (natural protein, S. cerevisiae, biotinylated when bound to the SPR chip (site not stated)) MLEAKFEEASLFKRIIDGFKDCVQLVNFQCKEDGIIAQAVDDSRVLLVSLEIGVEAFQEYRCDHPVTLGMDLTSLSKILRRGNNTDTLTLIADNTPDSIILLFEDTKKDRIAEYSLKLMDIDADFLKIEELQYDSTLSLPSSEFSKIVRDLSQLSDSINIMITKETIKFVADGDIGSGSVIIKPFVDMEHPETSIKLEMDQPVDLTFGAKYLLDIIKGSSLSDRVGIRLSSEAPALFQFDLKSGFLQFFLAPKFNDEE: binds
3. PCNA-F254L (natural protein, S. cerevisiae, biotinylated when bound to the SPR chip (site not stated)) MLEAKFEEASLFKRIIDGFKDCVQLVNFQCKEDGIIAQAVDDSRVLLVSLEIGVEAFQEYRCDHPVTLGMDLTSLSKILRCGNNTDTLTLIADNTPDSIILLFEDTKKDRIAEYSLKLMDIDADFLKIEELQYDSTLSLPSSEFSKIVRDLSQLSDSINIMITKETIKFVADGDIGSGSVIIKPFVDMEHPETSIKLEMDQPVDLTFGAKYLLDIIKGSSLSDRVGIRLSSEAPALFQFDLKSGFLQFFLAPKLNDEE: binds
